# Tested target: PAK7 (human)
# Method: KINOMEscan competition binding
# Stated conditions: compound 10.0 µM
Experimental readout: kinase still bound, per cent of control (%)
Answers are plain numbers, in %.

Cc1n[nH]c2ccc(-c3cncc(OC[C@@H](N)Cc4c[nH]c5ccccc45)c3)cc12 : 16

Quick request: kinase still bound, per cent of control for each listed item, please.
1. C=CC(=O)Nc1ccc(CN(C(=O)Nc2c(Cl)c(OC)cc(OC)c2Cl)c2cc(Nc3ccc(N4CCN(C)CC4)cc3)ncn2)cc1
2. C=CC(=O)Nc1cc(-n2c(=O)ccc3cnc4ccc(-c5cn[nH]c5)cc4c32)ccc1C
3. CS(=O)(=O)N1CCN(Cc2cc3nc(-c4cccc5[nH]ncc45)nc(N4CCOCC4)c3s2)CC1
4. O=C1NC(=O)/C(=C/c2ccc3nccc(-c4ccncc4)c3c2)S1

A)
1. 100
2. 95
3. 100
4. 91

For every item in the list below, what is its measured kinase still bound, per cent of control?
1. CNC(=O)c1ccc(Nc2cc(Nc3ccccc3S(=O)(=O)C(C)C)c3cc[nH]c3n2)nc1
2. CN(C)C/C=C/C(=O)Nc1ccc(C(=O)Nc2cccc(Nc3nccc(-c4cccnc4)n3)c2)cc1
3. O=C(Nc1cccc(Nc2ncc(Br)c(NCCc3cnc[nH]3)n2)c1)N1CCCC1
4. C[C@@H](Oc1cc(-c2cnn(C3CCNCC3)c2)cnc1N)c1c(Cl)ccc(F)c1Cl

A)
1. 100
2. 52
3. 1.6
4. 49
